Target: Adenosine receptor A2a (Rattus norvegicus, UniProt P30543)
Sequence (P30543 whole entry): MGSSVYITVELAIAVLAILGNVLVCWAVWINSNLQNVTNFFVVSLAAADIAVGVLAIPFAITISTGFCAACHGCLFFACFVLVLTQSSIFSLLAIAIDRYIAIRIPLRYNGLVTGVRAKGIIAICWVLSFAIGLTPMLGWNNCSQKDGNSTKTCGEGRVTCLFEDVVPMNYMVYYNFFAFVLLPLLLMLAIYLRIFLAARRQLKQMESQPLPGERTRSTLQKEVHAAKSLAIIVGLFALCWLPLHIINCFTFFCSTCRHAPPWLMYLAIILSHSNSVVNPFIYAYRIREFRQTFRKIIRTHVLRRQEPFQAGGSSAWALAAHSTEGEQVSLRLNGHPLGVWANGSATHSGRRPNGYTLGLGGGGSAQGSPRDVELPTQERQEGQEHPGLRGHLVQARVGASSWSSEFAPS
Test: Displacement of [3H]MSX-2 from rat brain striatum adenosine A2A receptor
Ki values, listed per item
Just the number please, in nM, no unit attached.

These recorded examples may help you get a feel for the data.
[
  {
    "INPUT SMILES": "CCCn1c(=O)[nH]c2nc(-c3ccc(S(=O)(=O)N4CCN(Cc5ccc(F)cc5)CC4)cc3)[nH]c2c1=O",
    "TEST SYSTEM": "Adenosine receptor A2a (Rattus norvegicus, UniProt P30543)",
    "MEASURED NUMBER": 194
  },
  {
    "INPUT SMILES": "CCn1c(=O)[nH]c2nc(-c3ccc(S(=O)(=O)N4CCN(Cc5ccccc5)CC4)cc3)[nH]c2c1=O",
    "TEST SYSTEM": "Adenosine receptor A2a (Rattus norvegicus, UniProt P30543)",
    "MEASURED NUMBER": 335
  },
  {
    "INPUT SMILES": "CCn1c(=O)[nH]c2nc(-c3ccc(S(=O)(=O)N4CCN(Cc5cccc(Cl)c5)CC4)cc3)[nH]c2c1=O",
    "TEST SYSTEM": "Adenosine receptor A2a (Rattus norvegicus, UniProt P30543)",
    "MEASURED NUMBER": 263
  },
  {
    "INPUT SMILES": "CCn1c(=O)[nH]c2nc(-c3ccc(S(=O)(=O)N4CCN(CCc5ccccc5)CC4)cc3)[nH]c2c1=O",
    "TEST SYSTEM": "Adenosine receptor A2a (Rattus norvegicus, UniProt P30543)",
    "MEASURED NUMBER": 1000
  },
  {
    "INPUT SMILES": "CCn1c(=O)[nH]c2nc(-c3ccc(S(=O)(=O)N4CCN(Cc5ccc(C)cc5)CC4)cc3)[nH]c2c1=O",
    "TEST SYSTEM": "Adenosine receptor A2a (Rattus norvegicus, UniProt P30543)",
    "MEASURED NUMBER": 341
  }
]

Provide measured Ki value, entry: CCn1c(=O)[nH]c2nc(-c3ccc(S(=O)(=O)N4CCN(c5ccc(Cl)cc5)CC4)cc3)[nH]c2c1=O 119

Provide measured Ki value, entry: C#CCn1c(=O)[nH]c2nc(-c3ccc(S(=O)(=O)N4CCN(c5ccc(Cl)cc5)CC4)cc3)[nH]c2c1=O 198

Provide measured Ki value, entry: CCn1c(=O)[nH]c2nc(-c3ccc(S(=O)(=O)N4CCN(c5ccc(OC)cc5)CC4)cc3)[nH]c2c1=O 367

----------
Target: Adenosine receptor A2b (Homo sapiens)
Sequence (P29275 whole entry): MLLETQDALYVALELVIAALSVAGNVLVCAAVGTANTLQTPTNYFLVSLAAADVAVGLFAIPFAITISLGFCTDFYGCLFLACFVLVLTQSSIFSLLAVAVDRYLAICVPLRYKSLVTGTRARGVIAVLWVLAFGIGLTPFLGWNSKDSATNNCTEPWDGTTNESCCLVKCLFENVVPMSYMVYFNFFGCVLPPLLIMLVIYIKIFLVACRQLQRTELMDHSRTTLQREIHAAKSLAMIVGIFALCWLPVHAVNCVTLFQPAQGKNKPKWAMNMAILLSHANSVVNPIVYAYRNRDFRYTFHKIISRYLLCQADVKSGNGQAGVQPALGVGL
Experiment: Displacement of [125I]I-ABOPX from human recombinant adenosine A2B receptor expressed in HEK293 cells
Assay type: cell-based
READOUT: Ki (µM)
Just the number please, in µM, no unit attached.

Provide measured Ki value, entry: Nc1nc(Cl)nc2c1ncn2[C@@H]1O[C@H](CO)[C@@H](O)[C@H]1O 25.5

----------
Molecular target: UniProt:P29275
Experiment: Displacement of [3H]PSB-603 from human recombinant adenosine A2B receptor expressed in CHO cells
Assay type: cell-based
pKi: −log10 of the molar value.
# label = MET if pKi >= 9 else NOT MET

[
  {
    "INPUT SMILES": "CCn1c(=O)[nH]c2nc(-c3ccc(S(=O)(=O)N4CCN(c5ccc(OC)cc5)CC4)cc3)[nH]c2c1=O",
    "CLASS LABEL": "NOT MET"
  },
  {
    "INPUT SMILES": "CCn1c(=O)[nH]c2nc(-c3ccc(S(=O)(=O)N4CCN(CCc5ccccc5)CC4)cc3)[nH]c2c1=O",
    "CLASS LABEL": "NOT MET"
  },
  {
    "INPUT SMILES": "C#CCn1c(=O)[nH]c2nc(-c3ccc(S(=O)(=O)N4CCN(c5ccc(Cl)cc5)CC4)cc3)[nH]c2c1=O",
    "CLASS LABEL": "MET"
  }
]

Next molecule, please.
Reported pKi reaches at least 9 for Nc1nc(Cl)nc2c1ncn2[C@@H]1O[C@H](CO)[C@@H](O)[C@H]1O ? NOT MET
